Entries and their MIC values follow.
test system: Micrococcus luteus; assay: Antimicrobial activity against Micrococcus luteus; format: functional

[
  {
    "compound": "NC1=N/C(=N\\CCS(=O)(=O)O)C(/C=C/CNC(=O)c2cc(Br)c(Br)[nH]2)(c2[nH]c(N)nc2/C=C/CNC(=O)c2cc(Br)c(Br)[nH]2)N1 (stereo unspecified) [NAGELAMIDE H]",
    "MIC / µg/mL": 16.7
  },
  {
    "compound": "Cl.Cl.Nc1ncc([C@H]2[C@H](CNC(=O)c3cc(Br)c[nH]3)[C@@H](CNC(=O)c3cc(Br)c[nH]3)[C@@H]2c2cnc(N)[nH]2)[nH]1 [SCEPTRIN HYDROCHLORIDE]",
    "MIC / µg/mL": 4.07
  },
  {
    "compound": "Nc1nc([C@@H]2c3[nH]c(N)nc3C[C@H](CNC(=O)c3cc(Br)c[nH]3)[C@H]2CNC(=O)c2cc(Br)c(Br)[nH]2)c[nH]1",
    "MIC / µg/mL": 2.08
  },
  {
    "compound": "Nc1nc([C@H]2c3[nH]c(N)nc3C[C@H](CNC(=O)c3cc(Br)c[nH]3)[C@H]2CNC(=O)c2cc(Br)c[nH]2)c[nH]1 [NAGELAMIDE E]",
    "MIC / µg/mL": 4.17
  },
  {
    "compound": "Nc1nc([C@@H]2c3[nH]c(N)nc3C[C@H](CNC(=O)c3cc(Br)c[nH]3)[C@H]2CNC(=O)c2cc(Br)c[nH]2)c[nH]1.O=C(O)C(F)(F)F.O=C(O)C(F)(F)F",
    "MIC / µg/mL": 4.17
  },
  {
    "compound": "Nc1nc(/C(=C/CNC(=O)c2cc(Br)c(Br)[nH]2)c2[nH]c(N)nc2/C=C/CNC(=O)c2cc(Br)c(Br)[nH]2)c[nH]1 [NAGELAMIDE C]",
    "MIC / µg/mL": 4.17
  },
  {
    "compound": "Nc1nc([C@H]2c3[nH]c(N)nc3C[C@H](CNC(=O)c3cc(Br)c[nH]3)[C@H]2CNC(=O)c2cc(Br)c(Br)[nH]2)c[nH]1 [NAGELAMIDE F]",
    "MIC / µg/mL": 4.17
  },
  {
    "compound": "Nc1nc([C@H](CCNC(=O)c2cc(Br)c(Br)[nH]2)c2[nH]c(N)nc2/C=C/CNC(=O)c2cc(Br)c(Br)[nH]2)c[nH]1 [NAGELAMIDE A]",
    "MIC / µg/mL": 2.08
  },
  {
    "compound": "Nc1nc([C@@H](c2[nH]c(N)nc2/C=C/CNC(=O)c2cc(Br)c(Br)[nH]2)[C@H](O)CNC(=O)c2cc(Br)c(Br)[nH]2)c[nH]1 [NAGELAMIDE B]",
    "MIC / µg/mL": 4.17
  },
  {
    "compound": "Nc1nc([C@H]2c3[nH]c(N)nc3C[C@H](CNC(=O)c3cc(Br)c(Br)[nH]3)[C@H]2CNC(=O)c2cc(Br)c(Br)[nH]2)c[nH]1 [NAGELAMIDE G]",
    "MIC / µg/mL": 2.08
  },
  {
    "compound": "Nc1nc([C@H](CCNC(=O)c2cc(Br)c(Br)[nH]2)c2[nH]c(N)nc2CCCNC(=O)c2cc(Br)c(Br)[nH]2)c[nH]1 [NAGELAMIDE D]",
    "MIC / µg/mL": 4.17
  }
]
